molecular target: Glycogen synthase kinase-3 beta (Homo sapiens, UniProt P49841); assay: concentration-response blocking of human GSK3B – biochemical, luminescence, cell-free homogeneous, retest, dose response (AID 434954)
Sequence (P49841 whole entry): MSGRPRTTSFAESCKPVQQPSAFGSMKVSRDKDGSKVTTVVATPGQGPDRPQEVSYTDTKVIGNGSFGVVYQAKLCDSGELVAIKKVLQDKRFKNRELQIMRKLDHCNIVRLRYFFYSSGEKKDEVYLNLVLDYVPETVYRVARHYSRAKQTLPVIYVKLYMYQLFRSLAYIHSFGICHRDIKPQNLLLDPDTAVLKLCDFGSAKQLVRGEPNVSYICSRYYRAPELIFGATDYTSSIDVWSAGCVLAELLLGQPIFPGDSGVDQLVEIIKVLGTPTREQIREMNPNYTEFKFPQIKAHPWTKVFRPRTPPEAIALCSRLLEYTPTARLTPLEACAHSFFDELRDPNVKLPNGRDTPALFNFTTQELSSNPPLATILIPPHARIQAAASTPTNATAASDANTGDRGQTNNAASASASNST
pEC50: −log10 of the molar value.
property: pEC50

CCCc1cc(=O)oc2cc(C)cc(O)c12	< 3.52
Nc1ccc(C(=O)Nc2ccccc2C(=O)O)cc1	< 3.52
O=C(NCCN1C(=O)S/C(=C\c2ccc(Cl)c(Cl)c2)C1=O)C1COc2ccccc2O1 (stereo not given)	< 3.52

Please report the recorded pEC50 for `CC[n+]1c(/C=C/N(C)c2ccccc2)oc2ccc(Cl)cc21` .
< 3.52

What do you get for O=C(Nc1ccccc1)C(=O)Nc1ccccn1 [N-Phenyl-N'-pyridin-2-yl-oxalamide] ?
< 3.52

What do you get for `O=C1C[C@@H](c2ccc(O)cc2)Oc2cc(O)ccc21` ?
< 3.52

What do you get for `NC(=S)NN=Cc1cn(CCC(=O)O)nc1-c1cccc(Br)c1` ?
< 3.52

What do you get for `CN(Cc1c(C(=O)NN=Cc2cccc(F)c2)nnn1-c1nonc1N)c1ccccc1` ?
4.81

What do you get for `COCc1c(C(N)=O)nnn1-c1nonc1N` ?
< 3.52

What do you get for CC1CCCC(C)N1C(=O)CN1C(=O)C(C)(C)Oc2ccc(C(=O)NC3CCCC3)cc21 (stereo not given) ?
< 3.52

What do you get for O=C(NC(=O)c1ccccc1)Nc1ccccn1 [N-(pyridin-2-ylcarbamoyl)benzamide] ?
4.29

###

target: Glycogen synthase kinase-3 beta (Homo sapiens); experiment: concentration-response blocking of human GSK3B – biochemical, luminescence, cell-free homogeneous, retest, dose response (AID 434954)
pEC50: −log10 of the molar value.
pEC50 by entry:

Fc1cccc(Nc2ncnc3n[nH]cc23)c1	4.49

Please report the recorded pEC50 for `O=C(NN=Cc1ccc(Br)s1)c1cccnc1` .
< 3.52

What do you get for CC(=O)NCC1COc2ccccc2O1 (configuration not stated) ?
< 3.52

What do you get for `CCC1(CC)NC(=O)N(CC(=O)OCC(=O)Nc2sccc2C#N)C1=O` ?
< 3.52

###

molecular target: UniProtKB P49841; assay: concentration-response blocking of human GSK3B – biochemical, luminescence, cell-free homogeneous, retest, dose response (AID 434954)
property: EC50

CC[n+]1c(/C=C/N(C)c2ccccc2)sc2ccc(Cl)cc21	49.8 µM
COc1cc(C=C2SC(Nc3ccc(O)cc3)=NC2=O)ccc1O [MLS000778276]	23.3 µM
O=C(CSc1ccc(F)cc1)Nc1ccc(N2CCOCC2)cc1	> 300 µM

Please report the recorded EC50 for CCn1c(SCC(=O)Nc2ccc(N(C)C)cc2)nnc1C1CC1 [SMR000601384] .
> 300 µM

What do you get for Cc1ccc2c(c1)=C(NN1C(=O)c3ccccc3C1=O)C(=O)N=2 [MLS000573597] ?
> 300 µM

What do you get for `CNC(=O)c1cc2cccc(OC)c2oc1=O` ?
> 300 µM

What do you get for `Cc1ccc2c(c1)Oc1ccc([N+](=O)[O-])cc1C(=O)N2` ?
> 300 µM

What do you get for `Cc1nc(C)c(-c2csc(Nc3ccc(C(=O)O)c(O)c3)n2)s1` ?
> 300 µM

What do you get for CCOc1ccc(OCC)c(NC(=O)CSc2nnc(C3CC3)n2CC)c1 [MLS001223718] ?
> 300 µM

What do you get for `COc1ccc(OC)c(Nc2nc(NCCC(C)C)nc(N)c2[N+](=O)[O-])c1` ?
> 300 µM

What do you get for Cc1cccc(Nc2nc(N)c([N+](=O)[O-])c(NCc3ccco3)n2)c1 [SMR000220105] ?
8.4 µM

Data origin, for the record: BindingDB's records for doi:10.7270/Q2TX3CTT
